Entries and their growth inhibition values follow.
# assay notes: NCI Yeast Anticancer Drug Screen. Data for the mgt1 strain (AID 153)
# cond: S. cerevisiae mgt1 mutant growth inhibition; at 1.2 µM; active compounds read high
Compounds without any hit were thinned out: in the full panel of roughly 79,000, 15% have a hit.
endpoint: growth inhibition (%)

{"molecule": "NC(CCCCCCCCCCCCC(N)C(=O)c1ccccc1)C(=O)c1ccccc1 (stereo unspecified)", "result value": -5}
{"molecule": "COc1ccc(C(=O)/C=C\\c2ccc(Cl)c(Cl)c2)cc1", "result value": 7}
{"molecule": "Fc1cc(F)c(F)c(S)c1F", "result value": -78}
{"molecule": "COc1cc([N+](=O)[O-])c2ncccc2c1Br", "result value": -2}
{"molecule": "COC(=O)c1cnc(Cl)c([N+](=O)[O-])c1", "result value": 2}
{"molecule": "COc1cc(NCCCCNCC(C)(C)C)c2ncccc2c1", "result value": 0}
{"molecule": "COc1ccc2cc3c4cc5c(cc4cc[n+]3cc2c1OC)OCO5", "result value": 15}
{"molecule": "CSC(=S)N/N=C/c1ccccc1", "result value": 3}
{"molecule": "O=C(O)c1ccc2cc(Cl)c3ccccc3c2c1", "result value": -1}
{"molecule": "O=S(=O)(c1cccc(C(F)(F)F)c1)N1c2ccccc2-n2cccc2C1c1cccnc1 (stereo unspecified)", "result value": -43}
{"molecule": "CCCCCCCCCCCCCCN", "result value": -2}
{"molecule": "Cc1cc(O)c(C(C)C)cc1SC#N", "result value": -3}
{"molecule": "O=[N+]([O-])c1cc(Cl)ccc1S(=O)(=O)c1ccc(Cl)cc1[N+](=O)[O-]", "result value": -29}
{"molecule": "COc1cc(C(=O)C=O)cc(OC)c1OC", "result value": 1}
{"molecule": "CCCCCCCCCCCCCCCCCCNC(=S)/N=C/c1c(O)c2ccccc2[nH]c1=O", "result value": 1}
{"molecule": "CC(C)CCC[C@@H](C)[C@H]1CC[C@H]2[C@@H]3CC[C@H]4C[C@H](N)CC[C@]4(C)[C@H]3CC[C@]12C", "result value": -3}
{"molecule": "CC(C)OP(=O)(OC(C)C)/C(Cl)=N/Nc1ccc([N+](=O)[O-])cc1", "result value": -21}
{"molecule": "Nc1ccc2cc(Br)ccc2c1Br", "result value": -4}
{"molecule": "C[N+](C)([O-])CCCNc1c2ccccc2nc2cccc([N+](=O)[O-])c12", "result value": -5}
{"molecule": "BrC1C2CCC3OC3C12 (stereo unspecified)", "result value": 2}
{"molecule": "CC(C)(Br)C(=O)/C=C/c1ccccc1", "result value": -2}
{"molecule": "O=[N+]([O-])c1ccc2nc(=S)[nH]n2c1", "result value": 0}
{"molecule": "Cc1ccc(C)c(C(=N)c2ccccc2Cc2ccccc2)c1", "result value": -3}
{"molecule": "O=C(/C=C/c1ccsc1)c1cccs1", "result value": 3}
{"molecule": "Cc1c(C(=O)/C=C/c2ccccc2[N+](=O)[O-])[n+](=O)c2ccccc2n1[O-]", "result value": 10}
{"molecule": "COC(=O)C1CCCCC1C(=O)Nc1ccccc1 (stereo unspecified)", "result value": 0}

###

# assay notes: NCI Yeast Anticancer Drug Screen. Data for the sgs1 strain (AID 173);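 also: 0% = growth of vehicle-only control cultures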
# cond: S. cerevisiae sgs1 mutant, at 100.0 µM, active compounds read high
Compounds without any hit were thinned out: in the full panel of roughly 79,000, 15% have a hit. Activity calls are given as the source filed them. No stated cut-off is given here; in the data, active means growth inhibition above about 70%; inactive means the rest.
Entries and their growth inhibition values follow.

{"molecule": "CN(C)CCNc1ccc2ncn3c4ccc(O)cc4c(=O)c1c23", "growth inhibition": "-23% (inactive)"}
{"molecule": "O=C(c1ccccc1)[C@H]1Nc2ccc(Cl)cc2[C@H]2OCCC[C@@H]12", "growth inhibition": "94% (active)"}
{"molecule": "Nc1ccc(/C=C/c2ccc3cccnc3c2)cc1", "growth inhibition": "46% (inactive)"}
{"molecule": "C[N+](C)([O-])CCCNc1c2ccccc2nc2cccc([N+](=O)[O-])c12", "growth inhibition": "97% (active)"}
{"molecule": "CCC(/C=C/c1ccccc1)=N\\Nc1ccc(Cl)cc1", "growth inhibition": "95% (active)"}
{"molecule": "CCCCCCCCNCCCCCCCC", "growth inhibition": "97% (active)"}

###

# assay notes: NCI Yeast Anticancer Drug Screen. Data for the rad52 strain (AID 147);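 also: 0% = growth of vehicle-treated control cultures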
# cond: S. cerevisiae rad52 mutant growth inhibition; at 11.0 µM; active compounds read high
Compounds without any hit were thinned out: in the full panel of roughly 79,000, 15% have a hit.
Class true: growth inhibition at least 20%. Class false: growth inhibition below 20%.

{"compound": "Cc1c(C(=O)/C=C/c2ccccc2[N+](=O)[O-])[n+](=O)c2ccccc2n1[O-]", "label class": "true"}
{"compound": "CC(C)[Si]1(C(C)C)OCC2OC(n3cnc4c(N)ncnc43)C(N)C2O[Si](C(C)C)(C(C)C)O1 (stereo not drawn)", "label class": "true"}
{"compound": "CCCNC(=O)OCc1c(COC(=O)NCCC)c(-c2ccc(Cl)c(Cl)c2)n2c1CCC2", "label class": "false"}
{"compound": "ClCCCOc1c(Cl)cc(Cl)cc1Cl", "label class": "false"}
{"compound": "O=C(C#Cc1ccccc1)Nc1ccccc1", "label class": "false"}
{"compound": "O=C(NO)c1coc2ccccc2c1=O", "label class": "false"}
{"compound": "NC(N)=NS(=O)(=O)c1ccc(Nc2c3ccccc3nc3c(C(=O)NC(CO)(CO)CO)cccc23)cc1", "label class": "true"}
{"compound": "S=C1C(=Nc2ccccc2)N(c2ccccc2)/C(=N\\c2ccccn2)N1c1ccccc1", "label class": "true"}
{"compound": "O=C(Cc1ccccc1)NNc1nc(NNC(=O)c2ccncc2)nc(Nc2ccc(Cl)cc2)n1", "label class": "false"}
{"compound": "CC(C)N(CCCNc1c2ccccc2nc2cccc([N+](=O)[O-])c12)C(C)C", "label class": "true"}
{"compound": "COC(=O)/C(C#N)=C\\NC(=S)C(N)=S", "label class": "true"}
{"compound": "O=C(CCCN1CCC(Nc2ccc(F)cc2)(c2nnnn2C2CCCCC2)CC1)c1ccc(F)cc1", "label class": "false"}
{"compound": "CCCCCCNCCCNc1c2ccccc2nc2cccc([N+](=O)[O-])c12", "label class": "true"}
{"compound": "CC1C(c2ccccc2)SC(=N)N1C (stereo not drawn)", "label class": "false"}
{"compound": "OC(Cc1cccc2ccccc12)CN1CCC(c2ccccc2)CC1 (stereo not drawn)", "label class": "true"}
{"compound": "COc1ccc(-c2cc(-c3cc(C)cc(Cl)c3O)nc3[nH]c(=S)[nH]c(=S)c23)cc1", "label class": "false"}
{"compound": "O=CC1(F)CC1(c1ccccc1)c1ccccc1 (stereo not drawn)", "label class": "false"}
{"compound": "O=C1C(CCSc2ccccc2)C(=O)N(c2ccccc2)C1c1ccccc1 (stereo not drawn)", "label class": "true"}
{"compound": "c1ccc2c(c1)N=C1CCCC3CCCC123 (stereo not drawn)", "label class": "false"}
{"compound": "CCC(C)COC(=O)Nc1cccc(Cl)c1 (stereo not drawn)", "label class": "false"}
{"compound": "c1ccc2c(c1)ccn2CCc1c[nH]c2ccccc12", "label class": "false"}
{"compound": "c1cc(-c2sc(-c3ccncc3)c(-c3ccncc3)c2-c2ccncc2)ccn1", "label class": "true"}
{"compound": "COc1cc2c(cc1OC)[C@@H](Nc1ccc(C#N)cc1)C1COC(=O)[C@@H]1C2c1cc(OC)c(O)c(OC)c1 (stereo partly drawn)", "label class": "true"}

###

Entries and their growth inhibition values follow.
# assay notes: NCI Yeast Anticancer Drug Screen. Data for the rad50 strain (AID 155);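 also: 0% = growth of vehicle-only cultures of the same strain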
# cond: S. cerevisiae rad50 strain growth inhibition; at 1.2 µM; active compounds read high
This is part of a sample that, as a whole, favours compounds with a hit. Of some 79,000 tested, about 15% had one in any assay.

{"compound": "COC(=O)c1ccccc1N=NNc1cccc(SC)c1", "growth inhibition, %": 12}
{"compound": "CCC(=O)Nc1ccc(N=NN(C)C)cc1", "growth inhibition, %": -61}
{"compound": "O=C1C=CC(=Nc2cccc3c2-c2ccccc2C3=O)O1", "growth inhibition, %": 3}
{"compound": "N#C/C(=C\\NC(=S)Nc1ccc(S(N)(=O)=O)cc1)C(=O)c1ccc2ccccc2c1", "growth inhibition, %": -5}
{"compound": "Cc1cccc2c1C1c3c(C)cccc3C(CC(=O)O)CC1CC2 (configuration not stated)", "growth inhibition, %": 13}
{"compound": "Cc1cccc2c(NCCCN(C)C)c3c([N+](=O)[O-])ccc(C)c3nc12", "growth inhibition, %": 54}
{"compound": "CCCCCCCCCC(=O)N(CCC)CCC", "growth inhibition, %": 2}
{"compound": "O=C(/C=C/c1ccsc1)c1cccs1", "growth inhibition, %": 21}
{"compound": "C/C(=N/NC(=S)Nc1ccccc1C)c1ccccn1", "growth inhibition, %": 1}
{"compound": "NC(=S)N/N=C1\\c2ccccc2CCC1CCC1(O)CCc2ccccc2C1=O (configuration not stated)", "growth inhibition, %": 35}
{"compound": "O=C(NOC(=O)c1ccc([N+](=O)[O-])cc1)c1ccc(Cl)cc1", "growth inhibition, %": -36}
{"compound": "CC(C)C(c1ccccc1)c1ccccc1", "growth inhibition, %": 1}
{"compound": "NCCOc1ccc(/C(=C(/Cl)c2ccccc2)c2ccccc2)cc1", "growth inhibition, %": -3}
{"compound": "O/N=c1/ccn(O)c2ccccc12", "growth inhibition, %": 74}
{"compound": "Nc1ccc(/C=C/c2ccc3cccnc3c2)cc1", "growth inhibition, %": 5}
{"compound": "Cc1nc2sc3c(c2c(=O)o1)CCCC3", "growth inhibition, %": 0}
{"compound": "CC(/C=C/c1ccc([N+](=O)[O-])o1)=N/N1CC(CN2CCOCC2)OC1=O (configuration not stated)", "growth inhibition, %": -9}
{"compound": "CN(C)CCNC(=Cc1ccc2ccccc2[n+]1C)NCCN(C)C", "growth inhibition, %": 1}
{"compound": "Nc1cc2ccccc2cc1N", "growth inhibition, %": -33}
{"compound": "O=C1c2ccccc2-c2cc3ccccc3c(=O)n21", "growth inhibition, %": 32}
{"compound": "C/C(=N\\Sc1ccccc1)c1ccccc1O", "growth inhibition, %": -3}
{"compound": "S=C1C(=Nc2ccccc2)N(c2ccccc2)/C(=N\\c2ccccn2)N1c1ccccc1", "growth inhibition, %": -3}
